biological target: Genome polyprotein (Hepatitis C virus genotype 1b (isolate BK) (HCV)); test: Inhibition Assay: To measure inhibition of the enzymatic activity of the HCV NS5B RNA-dependent RNA polymerase by the nucleoside triphosphate compounds of the present invention, a radiolabeled nucleotide incorporation assay was used. This assay is a modified version of the assay described in International Publication No. WO2002/057287. Briefly, 50 uL reactions containing 20 mM HEPES (pH 7.3); 7.5 mM DTT; 20 units/ml RNasIN; 1 uM each of ATP, GTP, UTP and CTP; 20 uCi/mL [33P]-CTP; 10 mM MgCl; 60 mM NaCl; 100 ug/ml BSA; 0.021 uM DCoH heteropolymer RNA template; and 5 nM NS5B (1b-BKΔ55) enzyme were incubated at room temperature for 1 hour. The assay was then terminated by the addition of 500 mM EDTA (50 uL). The reaction mixture was transferred to a Millipore DE81 filter plate and the incorporation of labeled CTP is determined using Packard TopCount. Compound IC50 values can then be calculated from experiments with 10 serial 3-fold dilutions of the inhibitor in duplicate.
Sequence (P26663 2420-3010 limits assumed): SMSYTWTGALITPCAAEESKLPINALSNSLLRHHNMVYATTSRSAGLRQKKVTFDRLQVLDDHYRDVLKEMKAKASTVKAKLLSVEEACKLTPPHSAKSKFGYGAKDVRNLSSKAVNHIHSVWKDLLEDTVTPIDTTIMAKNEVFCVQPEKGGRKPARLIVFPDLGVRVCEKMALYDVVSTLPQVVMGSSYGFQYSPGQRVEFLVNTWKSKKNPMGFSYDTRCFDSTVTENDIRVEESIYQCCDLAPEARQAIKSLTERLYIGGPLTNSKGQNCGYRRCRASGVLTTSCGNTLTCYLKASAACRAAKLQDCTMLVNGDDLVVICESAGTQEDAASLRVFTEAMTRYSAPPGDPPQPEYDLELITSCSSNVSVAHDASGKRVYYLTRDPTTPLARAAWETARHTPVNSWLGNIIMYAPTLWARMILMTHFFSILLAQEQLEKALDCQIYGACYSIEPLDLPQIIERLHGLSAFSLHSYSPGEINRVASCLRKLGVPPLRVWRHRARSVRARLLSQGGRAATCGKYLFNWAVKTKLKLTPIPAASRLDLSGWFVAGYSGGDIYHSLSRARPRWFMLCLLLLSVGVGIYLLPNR
Assay Readout: pIC50
Give bare numbers, as −log10 of the molar value.

C[C@@]1(C#N)[C@@H](c2cnc3c(N)ncnn23)O[C@@H](COP(=O)(O)OP(=O)(O)OP(=O)(O)O)[C@@H]1O    7.30
CC1(C#N)[C@H](O)[C@@H](COP(=O)(O)OP(=O)(O)OP(=O)(O)O)O[C@@]1(C#N)c1cnc2c(N)ncnn12 (some centres undefined)    4.06
CO[C@]1(c2ccc3c(N)ncnn23)O[C@@H](COP(=O)(O)OP(=O)(O)OP(=O)(O)O)[C@H](O)[C@]1(C)C#N    7.06

Read the next record carefully.
Query: Record C[C@@]1(C#N)[C@H](O)[C@@H](COP(=O)(O)OP(=O)(O)OP(=O)(O)O)O[C@H]1c1ccc2c(N)ncnn12 : what is its pIC50 with Genome polyprotein (Hepatitis C virus genotype 1b (isolate BK) (HCV))?
Response: 8.52
